System: SNB-75 CNS
Test name: NCI-60 one-dose screen, 48 h (100 = growth as untreated, 0 = no growth, -100 = all killed)
Test context: 10 µM unless noted
The panel holds about 83,000 compounds, 20% with a hit somewhere; the sample as a whole holds those more often.
Classify as follows. Reported growth greater than or equal to 50%: 1. Reported growth below: 0.

• COc1ccc(C(=O)C2=CC(=O)C(=O)C2)cc1OC = 1
• Cc1cc(Cl)c2c(Cl)ccc(Cl)c2n1 = 1
• COc1nc2c(cc1S(=O)(=O)c1ccccc1)CCc1c-2cnn1-c1ccccc1 = 1
• COc1ccc(-c2c(-c3cc4c(c(OC)c3OC)OCO4)noc2N)cc1 = 0
• COc1cc(/C=C2\C(=O)Nc3ccccc32)cc(OC)c1O = 0
• Cc1nc2cc(Nc3nc(N4CCOCC4)nc(N4CCN(C)CC4)n3)ccc2n1Cc1ccccc1 = 1
• C=CC(=O)N1CC2(CCC(n3nc(-c4ccc(Oc5ccccc5)cc4)c4c(N)ncnc43)CC2)C1 = 0
• CCCCC(O)Cn1ncc(C(=O)OCC)c1NC(=O)NCc1ccccc1C(F)(F)F (stereo unspecified) = 1
• COC1(OC)C2(Cl)C=C(c3ccccc3)C1(Cl)C(Cl)=C2Cl (stereo unspecified) = 1
• O=C(NCc1cccnc1)c1ccc([N+](=O)[O-])o1 = 0
• CCN1CCN(c2ccc(Nc3ncc4ccc5ncn(C(C)C)c5c4n3)nc2)CC1 = 0
• COC(=O)C1C2CC3c4[nH]c5cc(OC)ccc5c4CCN3CC2CC(OC2CCCCO2)C1OC (stereo unspecified) = 1
• Cc1ccc(-c2c3c(N)c4c(nc3nc3c2c(C)nn3-c2ccccc2)CCCC4)cc1 = 1
• CN1CCc2c(c3ccccc3c3ccccc23)C1 = 1
• COC(=O)[C@@H]1CCCN1C(=O)[C@@H]1CCCN1C(=O)[C@@H](Cc1c[nH]c2ccccc12)NC(=S)Nc1cc(C(F)(F)F)cc(C(F)(F)F)c1 = 0
• COc1cc(/C=N/NC(=O)c2cnn3c2NC(c2ccccc2)C3)cc(OC)c1OC (stereo unspecified) = 1
• N#CC1=C(N)Oc2cc(N)ccc2C1c1ccc(F)cc1 (stereo unspecified) = 1
• COc1ccc(-c2nc3sccn3c2/C=C/C(=O)c2cc(OC)c(OC)c(OC)c2)cc1OC = 0
• O=C(C[Si](CC(=O)c1cccc(C(F)(F)F)c1)CC(=O)c1cccc(C(F)(F)F)c1)c1cccc(C(F)(F)F)c1 = 1
• COC(=O)CCC(=O)c1ccccc1 = 1
• Cc1nc2nc(C(F)(F)F)[nH]c2nc1C = 1
• COc1ccc(OC2=C(C#N)C(=N)N3c4ccccc4Sc4ccccc4C3N2)cc1 (stereo unspecified) = 1
• Cc1nc2cc(Nc3nc(Nc4ccc(F)cc4)nc(N4CCN(C)CC4)n3)ccc2n1Cc1ccccc1 = 0
• COc1cccc(C2CC(=O)Nc3cc4c(cc32)OCO4)c1OC (stereo unspecified) = 1
• COC(=O)c1cc(-c2ccc(C)cc2)n(C(=O)CSc2nc3sc(C(N)=O)c(C)c3c(=O)n2Cc2ccccc2)n1 = 1
• CC(=O)N(CC(O)CO)c1c(I)c(C(=O)NCCO)c(I)c(C(=O)NCC(O)CO)c1I (stereo unspecified) = 1
• Cc1nn(CC(=O)O)c2c1C(=O)CC(C)(C)C2 = 1
• O=c1c2c(=NCCN3CCCC3)cc3c(=O)n(CCCN4CCOCC4)c(=O)c4c(-c5ccc(CN6CCCC6)cc5)cc(c(O)n1CCCN1CCOCC1)c2c4-3 = 0
• Cc1cc(C)c(S(=O)O)c(C)c1 = 1
• COc1c(Cl)ccc2c(-c3nc4cc(Cl)c(F)cc4s3)cc(=O)oc12 = 1
• COc1cccc(OC)c1OC(=O)c1ccccc1 = 1
• CC(=O)OC[C@H](O)[C@@]1(O)CC[C@H]2[C@@H]3CCC4=CC(=O)CC[C@]4(C)[C@H]3[C@@H](O)C[C@@]21C = 1
• COc1ccc(Nc2[nH]n(C3=Nc4ccccc4Sc4ccccc43)c(=O)c2C#N)cc1 = 1
• C=C(C)CCCC(C)CC#N (stereo unspecified) = 1
• O=C(CCc1nnc2sc(-c3ccccc3)nn12)c1nc2ccccc2[nH]1 = 1
• COc1cc(/C=N/NC(=O)c2cnn3c2NC(c2ccccc2)C3)ccc1OC1CCCC1 (stereo unspecified) = 0
• CCCCCCCCCCCC(=O)[O][Sn]([CH2]CCC)([CH2]CCC)[CH2]CCC = 0
• COc1cc2cc(Oc3ccc(NC(=O)Nc4cccc(C(F)(F)F)c4)cc3)c(C)nc2cc1OCCN1CCCCC1 = 0
• COc1ccc(/C=N\N2CCOCC2)cc1OC1CCCC1 = 1
• COc1cccc(C2CC(=O)Nc3cc4c(cc32)CCC4)c1OC (stereo unspecified) = 0

Data provenance is PubChem BioAssay (NCI).
